# target_desc: 5-HT1A receptor (Sus scrofa)
endpoint_label: pIC50
Answers are plain numbers, as −log10 of the molar value.

Some solved cases for reference:
molecule=CN(C)CCc1c[nH]c2ccc(CN3CCNS3(=O)=O)cc12 reading=6.10
molecule=CN(C)CCc1c[nH]c2ccc(CN3CCN(C)S3(=O)=O)cc12 reading=6.10

Okay, next one:
Query: Note down pIC50 recorded for `CNCCc1c[nH]c2ccc(CN3CCN(C)S3(=O)=O)cc12`
Reply: 6.10
